Field pIC50: reported value for Receptor-interacting serine/threonine-protein kinase 1 (Homo sapiens, UniProt Q13546); entries drawn from several documents.
pIC50: −log10 of the molar value.

Worked set:
Prompt: Look up and report measured pIC50 for this entry: C[C@H](NC(=O)c1cn(C)c2ccc(-c3ccc4c(NC(=O)C5CC5)c[nH]c4c3)cc12)c1cccc(F)c1
Response: 7.00 to 8.00

Prompt: Look up and report measured pIC50 for this entry: CC(C)C(=O)Nc1nc2cc(-c3ccc4c(c3)c(C(=O)N[C@H]3CCCc5ccccc53)cn4C)ccn2n1
Response: 6.00 to 7.00

Prompt: Look up and report measured pIC50 for this entry: C[C@H](NC(=O)c1cn(C)c2ccc(-c3ccn4nc(NC(=O)N5CCCC(O)C5)nc4c3)cc12)c1cccc(F)c1 (some centres unmarked)
Response: 8.00 to 9.00

Prompt: Look up and report measured pIC50 for this entry: Cn1cc(C(=O)N2CCCC2c2cccc(F)c2)c2cc(-c3ccn4nc(NC(=O)C5CC5)nc4c3)ccc21 (centres unmarked)
Response: 7.00 to 8.00

Prompt: Look up and report measured pIC50 for this entry: C[C@H](NC(=O)c1c[nH]c2ccc(-c3ccc4nc(NC(=O)C5CC5)sc4c3)cc12)c1ccc(F)cc1
Response: 7.00 to 8.00

---
Prompt: Look up and report measured pIC50 for this entry: C[C@H](NC(=O)c1c[nH]c2ccc(-c3ccc4sc(NC(=O)C5CC5)nc4c3)cc12)c1cccc(F)c1
Response: 6.00 to 7.00

Prompt: Look up and report measured pIC50 for this entry: C[C@H](NC(=O)c1cn(C)c2ccc(-c3cc[nH]n3)cc12)c1cccc(F)c1
Response: ≤ 6.00

Prompt: Look up and report measured pIC50 for this entry: O=C(NCc1ccc(F)c(F)c1)c1c[nH]c2ccc(-c3ccc4nc(NC(=O)C5CC5)sc4c3)cc12
Response: 7.00 to 8.00

Prompt: Look up and report measured pIC50 for this entry: C[C@H](NC(=O)c1c[nH]c2ccc(-c3ccc4nc(NC(=O)C5CC5)sc4c3)cc12)c1cccc(Cl)c1
Response: 7.00 to 8.00

Prompt: Look up and report measured pIC50 for this entry: CCOC(=O)c1coc(N2CCC(C(=O)N3N=CC[C@H]3c3ccccc3)CC2)n1
Response: 7.50 to 9.00

Prompt: Look up and report measured pIC50 for this entry: O=C(C1CCN(c2ncccn2)CC1)N1N=CC[C@H]1c1cccnc1
Response: ~7.50

Prompt: Look up and report measured pIC50 for this entry: Cn1cc(C(=O)NCc2ccc(N3CCOCC3)cc2)c2cc(-c3ccc4nc(NC(=O)C5CC5)sc4n3)ccc21
Response: ≤ 6.00

Prompt: Look up and report measured pIC50 for this entry: C[C@H](NC(=O)c1cn(C)c2ccc(-c3ccc(N4CCOCC4)cc3)cc12)c1cccc(F)c1
Response: ≤ 6.00

Prompt: Look up and report measured pIC50 for this entry: O=C(c1ccnc(N2CCC(C(=O)N3N=CC[C@H]3c3ccccc3)CC2)n1)N1CCOCC1
Response: 7.50 to 9.00

Prompt: Look up and report measured pIC50 for this entry: COc1ccc([C@H](C)NC(=O)c2cn(C)c3ccc(-c4ccn5nc(NC(=O)C(C)C)nc5c4)cc23)cc1
Response: 7.00 to 8.00

Prompt: Look up and report measured pIC50 for this entry: O=C(NCc1cccc(Br)c1)c1c[nH]c2ccc(-c3ccc4nc(NC(=O)C5CC5)sc4c3)cc12
Response: 6.00 to 7.00

Prompt: Look up and report measured pIC50 for this entry: O=C(NCc1ccn[nH]1)c1c[nH]c2ccc(-c3ccc4nc(NC(=O)C5CC5)sc4c3)cc12
Response: ≤ 6.00
